Values were extracted from PubChem BioAssay.

test: plasmodial surface anion channel blockers, osmotic lysis – cell-based, P. falciparum Indochina, OD700, 18 h, primary screen (AID 1157); conditions: P. falciparum Indochina infected erythrocytes, osmotic lysis OD700, 18 h; higher = more signal, called active from +8 up or from −8 down
Returns 1 if the recorded z-score is greater than or equal to 0.7, and 0 otherwise.

{"columns": ["Compound", "Class name"],
 "data": [
  ["COc1ccc(C(=O)Nc2ccc3c(c2)[C@]2(O[C@@H](CCO)[C@H]([Si](C)(C)c4ccc(OC)cc4)[C@H]2C)C(=O)N3Cc2ccccc2)cc1", 0],
  ["C=CCC(OC(C)=O)[C@@H]1[C@@H](N(Cc2cccc3ccccc23)C(=O)c2ccc(C)cc2)c2cc(OCCCO)ccc2N1C(=O)c1ccc2ccccc2c1 (some centres undefined)", 0],
  ["O=c1c2ccc(Br)cc2nc(-c2ccccc2)n1Cc1cccc(O)c1", 1],
  ["CC[C@@H]1[C@@H]2C3C(=O)N(CC)C(=O)C3CC(=O)[C@@H]2[C@H](c2ccc(C)cc2)N1S(=O)(=O)c1ccc(C)cc1 (some centres undefined)", 0],
  ["CC(C)CNC(=O)[C@@]1(C)c2ccccc2C(=O)N(Cc2ccccc2)[C@H]1c1ccc(CO)cc1", 0],
  ["CC1(C)[C@@H]2CC(C(O)C3C=CC4C(=O)N(c5ccccc5)C(=O)C4N3Nc3ccccc3F)=C[C@@H]1C2 (some centres undefined)", 0],
  ["COC(=O)[C@@]1(Cc2ccc(F)cc2)[C@H]2c3cc(C(=O)N4CCCC4)n(Cc4ccccc4)c3C[C@H]2CN1C(=O)c1ccccc1", 1],
  ["CN1C(=O)C2C=CC(C(O)COCc3ccccc3)N(Nc3ccccc3)C2C1=O (centres undefined)", 0],
  ["COc1ccc([Si](C)(C)[C@@H]2[C@@H](CCO)O[C@]3(C(=O)N(Cc4ccccc4)c4ccc(N5CCCCC5=O)cc43)[C@H]2C)cc1", 0],
  ["NC(=O)[C@H]1[C@@H]2C(=O)O[C@@H](c3ccccc3)[C@@H](c3ccccc3)N2[C@@H](c2ccc(O)cc2)[C@]12C(=O)Nc1ccc(C#CC3(O)CCCCCC3)cc12", 0],
  ["O=C1OCCC=C[C@H]2OC34C=CCN(Cn5nnc6ccccc65)C(=O)[C@H]3N(CCCCCO)C(=O)[C@@H]4C12 (some centres undefined)", 0],
  ["COCCOC(=O)N1C(=O)[C@@]2(c3cc(C#CCNC(N)=O)ccc31)[C@H](C(=O)N1CCCCCCC1)[C@H]1C(=O)O[C@H](c3ccccc3)[C@H](c3ccccc3)N1[C@@H]2c1ccc(OCCO)cc1", 1],
  ["COc1ccc([Si](C)(C)[C@H]2[C@H](CCO)O[C@@]3(C(=O)N(Cc4cccc(N5CCOC5=O)c4)c4ccccc43)[C@@H]2C)cc1", 1]
]}

====

Quick list: composite z-score per entry.
experiment: small molecules captured by biotinylated probe aFSTL3 – biochemical, small-molecule microarray, fluorescence 635/667, stem cell growth factor project, primary screen (AID 1064); details: higher = more signal;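 further: measures binding of the biotinylated anti-FSTL3 antibody to printed compounds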
Observation type: composite z-score

{"columns": ["Molecule", "Recorded measurement"],
 "data": [
  ["C[C@]12C(=O)N(CCCCCO)[C@@H]3C(=O)N(c4ccc(Cl)cc4)CC=CC31O[C@@H]1/C=C\\CCCOC(=O)C12 (some centres not stated)", 0.302],
  ["COc1cccc(C)c1NC(=O)O[C@H]1[C@H](OC(=O)Nc2ccccc2)[C@H](OC(=O)Nc2ccccc2)[C@@H](OC)O[C@@H]1CO", -0.306],
  ["NC(=O)NCC#Cc1ccc2c(c1)[C@]1(C(=O)N2)[C@H](c2ccc(O)cc2)N2[C@H](c3ccccc3)[C@H](c3ccccc3)OC(=O)[C@H]2[C@@H]1C(N)=O", 0.373],
  ["CC(C)C(CO)N1C(=O)[C@@H]2[C@H]3C(=O)OCC=C[C@H]3OC23C=CCN(CCN2CCOCC2)C(=O)[C@@H]13 (some centres not stated)", -0.565],
  ["COCCOC(=O)N1C(=O)[C@@]2(c3cc(C#CCNC(N)=O)ccc31)[C@H](C(=O)N1CCCCCCC1)[C@H]1C(=O)O[C@H](c3ccccc3)[C@H](c3ccccc3)N1[C@@H]2c1ccc(OCCO)cc1", 1.03],
  ["C=C(/C(=C/C[C@@H](OC(=O)c1ccncc1)c1cccc(OCCO)c1)c1cc(C(=O)OC)ccc1OC)C(C)C", -0.295],
  ["C=CCNC(=O)[C@H]1[C@@H]2C(=O)O[C@@H](c3ccccc3)[C@@H](c3ccccc3)N2[C@@H](c2ccc(O)cc2)[C@]12C(=O)N(C(=O)OCCOC)c1ccc(C#CC3(O)CCCCCC3)cc12", 0.228],
  ["O=C1O[C@H](c2ccccc2)[C@H](c2ccccc2)N2[C@H]1[C@@H](C(=O)NC[C@H](O)c1ccccc1)[C@]1(C(=O)Nc3ccccc31)[C@H]2c1ccccc1OCCO", 0.0095],
  ["[N-]=[N+]=NCc1ccccc1[C@H]1OC(c2ccc(OCCCO)cc2)=N[C@@]1(Cc1ccccc1N=[N+]=[N-])C(=O)NCCN1CCOCC1", 0.0233],
  ["C=CCOC(=O)[C@@H]1[C@H]2C(=O)O[C@H](c3ccccc3)[C@H](c3ccccc3)N2[C@H](c2ccc(OCCOC(=O)[C@@H]3C[C@@H]4C(=O)N5CCC[C@H]5C(=O)N4[C@@H]3c3cccc(OCCO)c3)cc2)[C@@]12C(=O)Nc1ccc(I)cc12", -0.396],
  ["COC(=O)c1c(CC[C@@H](CO)NC(=O)N[C@@H](C)Cn2cc(C3(O)CCCC3)nn2)oc(C(C)=O)c1C(=O)OC", -0.36],
  ["CN(C)C(=O)[C@]1(Cc2ccccc2N=[N+]=[N-])N=C(c2ccc(OCCCO)cc2)O[C@@H]1c1ccccc1CN=[N+]=[N-]", -0.144],
  ["C#CCOC(=O)N[C@H](C=CCCCC)c1ccccc1", 0.209],
  ["COC(=O)[C@@]1(Cc2ccc(OC)cc2)[C@H]2c3cc(C(=O)N(C)C)n(CCF)c3C[C@H]2CN1C(=O)c1ccccc1", 0.999],
  ["C[C@H]1NC(=O)C([C@@H](C)OCc2ccccc2)NC(=O)[C@@]23C(=O)N[C@@H](Cc4ccccc4)C2[C@H](C)[C@@]2(C)O[C@H]2C3/C=C/CC/C=C/CNC1=O (some centres not stated)", -0.0367],
  ["CC(C)(C)N1CC=CC23O[C@@H]4C=CCCOC(=O)C4[C@H]2C(=O)N(CCCO)[C@@H]3C1=O (some centres not stated)", 0.248],
  ["Cc1ccc(S[C@]2(C(=O)O)CC(=O)N(Cc3ccccc3C(F)(F)F)[C@@H]2c2ccc(CO)cc2)cc1", 0.405],
  ["CN(C)CCCC[C@@H]1NC(=O)[C@H]2C[C@@H](C(=O)NCCCCCCNC(=O)CS)[C@@H](c3ccc(O)cc3)N2C1=O", 0.0462],
  ["CCCC[C@H]1OB(O)C[C@H]2C1=C(COc1ccccc1)Cn1c(=O)n(-c3ccccc3)c(=O)n12", -0.211],
  ["CC(C)(C)OC(=O)CC[C@]1(C(=O)N2CCCCC2)N=C(c2ccc(OCCCO)cc2)O[C@H]1c1ccccc1CN=[N+]=[N-]", -0.193],
  ["C=CC[C@@]1(C(=O)NCC(O)CO)N=C(c2ccc(OCCCO)cc2)O[C@@H]1c1ccccc1 (some centres not stated)", 1.49],
  ["Cc1ccc(F)cc1S(=O)(=O)N[C@@H]1CCN(C(=O)c2ccc(OC(C)C)cc2)C1", -0.473],
  ["COc1ccccc1CN1C(=O)c2ccccc2[C@](Cc2ccccc2I)(C(=O)NCCN2CCOCC2)[C@@H]1c1ccc(CO)cc1", -0.291],
  ["CC(=O)NCCCC[C@@H]1NC(=O)[C@@H]2C[C@H](C(=O)NCCCC[N+](C)(C)C)[C@H](c3cccc(OCCO)c3)N2C1=O", -0.239],
  ["COc1ccc(C#Cc2ccc3c(c2)[C@]2(C(=O)N3)[C@H](c3ccc(OCCO)cc3)N3[C@H](c4ccccc4)[C@H](c4ccccc4)OC(=O)[C@H]3[C@@H]2C(=O)N2CCN(c3ncccn3)CC2)cc1", -0.176],
  ["O=C1c2ccccc2C(=O)C2CC([C@H]3Oc4ccccc4S(=O)(=O)N4CCC[C@@H]34)=CCC12 (some centres not stated)", -0.253],
  ["CN1C(=O)C2C=CC(C(O)c3ccc(F)cc3)N(N3CCCCC3)C2C1=O (configuration not stated)", 1.1]
]}

====

experiment: growth modulation of vineyard yeast isolate – strain RM11-1a, OD600, basal, 24 h, primary screen (AID 1177);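 further: cultures grown under basal conditions with no added stressor; test concentration not given here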; settings: S. cerevisiae RM11-1a growth, OD600, 24 h; higher = more signal, called active from +8 up or from −8 down
Below, each entry is listed alongside its reported z-score.
Observation type: z-score

{"columns": ["Smiles record", "Recorded measurement"],
 "data": [
  ["COCCOC(=O)N1C(=O)[C@@]2(c3cc(C#CC4(O)CCCCCC4)ccc31)[C@H](C(=O)N1CCN(c3ncccn3)CC1)[C@H]1C(=O)O[C@H](c3ccccc3)[C@H](c3ccccc3)N1[C@@H]2c1ccc(O)cc1", 2.1],
  ["CCCNC(=O)[C@@H]1c2ccccc2C(=O)N(CC23CC4CC(CC(C4)C2)C3)[C@H]1c1ccc(CO)cc1", 0.987],
  ["COCCOC(=O)N1C(=O)[C@@]2(c3cc(C#CC4(O)CCCCCC4)ccc31)[C@H](C(=O)NC[C@H](O)c1ccccc1)[C@H]1C(=O)O[C@H](c3ccccc3)[C@H](c3ccccc3)N1[C@@H]2c1ccc(OCCO)cc1", 2.73],
  ["CC(C)CN1C(=O)[C@@]2(Cc3ccccc31)c1ccccc1C(=O)N(Cc1ccccc1)[C@H]2c1ccc(CO)cc1", -0.286],
  ["COC(=O)[C@@]1(Cc2ccc(OC)cc2)[C@H]2c3cc(C(=O)N4CCCC4)n(CCF)c3C[C@H]2CN1C(=O)c1ccccc1", 0.977],
  ["COC(=O)[C@@]1(Cc2ccccc2)[C@H]2c3cc(C(=O)N(C)C)n(Cc4ccc(O)c(OC)c4)c3C[C@H]2CN1C(=O)c1ccccc1", 0.458]
]}
